method: Acute toxicity in ICR mouse assessed as survival rate at 70 mg/kg, ip measured on day 14 (reference value: 100%)
Format: organism-based
measurement-setup: in vivo
outcome-measure: survival at 14 day (%)
// note: answer is a bare numeric in %

Exam item: Recorded survival at 14 day of COc1ccc([C@H]2[C@H](CO)C(=O)N2c2cc(OC)c(OC)c(OC)c2)cc1O , please.
Marked response: 30

----------
method: Acute toxicity in ICR mouse assessed as survival rate at 95 mg/kg, ip measured on day 14 (reference value: 100%)
Type: organism-based
measurement-setup: in vivo
outcome-measure: survival at 14 day

Exam item: Recorded survival at 14 day of COc1ccc([C@H]2[C@H](CO)C(=O)N2c2cc(OC)c(OC)c(OC)c2)cc1O , please.
Marked response: 20%
